- ASSAY_TEXT: Phase IIa monotherapy study: plasma pharmacokinetics
- Format: in vivo, HIV-1–positive, treatment-naive adults
- ASSAY_SETUP: human, plasma, po, 200 mg
OBSERVED_PROPERTY: AUC(0-t) (ng·h/mL)

- C=C(C)[C@@H]1CC[C@]2(NCCN3CCS(=O)(=O)CC3)CC[C@]3(C)[C@H](CC[C@@H]4[C@@]5(C)CC=C(C6=CC[C@@](CF)(C(=O)O)CC6)C(C)(C)[C@@H]5CC[C@]43C)[C@@H]12 [GSK’254]: 12400

* * *

- ASSAY_TEXT: Phase IIa monotherapy study: plasma pharmacokinetics
- Format: in vivo, HIV-1–positive, treatment-naive adults
- ASSAY_SETUP: human, plasma, po, 200 mg, tmax, median (range), repeat dose 200 mg once daily, Day 8, 9, or 10 (part 1), plasma, n = 6
OBSERVED_PROPERTY: Tmax (h)

* C=C(C)[C@@H]1CC[C@]2(NCCN3CCS(=O)(=O)CC3)CC[C@]3(C)[C@H](CC[C@@H]4[C@@]5(C)CC=C(C6=CC[C@@](CF)(C(=O)O)CC6)C(C)(C)[C@@H]5CC[C@]43C)[C@@H]12 | 5.48

* * *

- ASSAY_TEXT: Phase IIa monotherapy study: plasma pharmacokinetics
- Format: in vivo, HIV-1–positive, treatment-naive adults
- ASSAY_SETUP: human, plasma, po, 40 mg
OBSERVED_PROPERTY: AUC(0-t)

* C=C(C)[C@@H]1CC[C@]2(NCCN3CCS(=O)(=O)CC3)CC[C@]3(C)[C@H](CC[C@@H]4[C@@]5(C)CC=C(C6=CC[C@@](CF)(C(=O)O)CC6)C(C)(C)[C@@H]5CC[C@]43C)[C@@H]12 | 3250 ng·h/mL

* * *

- ASSAY_TEXT: Phase IIa monotherapy study: plasma pharmacokinetics
- Assay type: in vivo, HIV-1–positive, treatment-naive adults
- ASSAY_SETUP: human, plasma, po, 140 mg
OBSERVED_PROPERTY: AUC(0-t)

- C=C(C)[C@@H]1CC[C@]2(NCCN3CCS(=O)(=O)CC3)CC[C@]3(C)[C@H](CC[C@@H]4[C@@]5(C)CC=C(C6=CC[C@@](CF)(C(=O)O)CC6)C(C)(C)[C@@H]5CC[C@]43C)[C@@H]12: 14000 ng·h/mL
